Recorded values, source patent US9695155B2.

// Pigweed plant response rating lookup, one value per entry
tested on: pigweed; test: Test A preemergence; format: in vivo, Amaranthus retroflexus; details: 1000 g ai/ha, 0 to 100 scale, 0 no effect, 100 complete control, approx. 10 days
# output: bare number, no unit

Below, 4 molecules whose answers are already recorded.
Give the reported value of Pigweed plant response rating for this record: Fc1cccc(Oc2ncc(Cl)cn2)c1-n1cc(-c2cccc(C(F)(F)F)c2)nn1 [Compound 276] 0

Give the reported value of Pigweed plant response rating for this record: Cc1noc(-c2cccc(Oc3ncc(Cl)cn3)c2-n2cc(C(F)(F)F)cn2)n1 [Compound 299] 100

Give the reported value of Pigweed plant response rating for this record: Clc1cnc(Oc2ccccc2-n2cc(Br)nn2)nc1 [Compound 223] 100

Give the reported value of Pigweed plant response rating for this record: N#Cc1cnn(-c2ccccc2Oc2ncc(Br)cn2)n1 [Compound 56] 100

Alright, here's another molecule for you.
Give the reported value of Pigweed plant response rating for this record: CCNC(=O)c1cccc(Oc2ncc(Cl)cn2)c1-n1cc(C(F)(F)F)cn1 [Compound 257] 80

* * *

tested on: Italian ryegrass; assay: Test A preemergence; assay type: in vivo, Lolium multiflorum; conditions: 125 g ai/ha
measurementLabel: Ryegrass, Italian plant response rating (0 to 100 scale)

Give the reported value of Ryegrass, Italian plant response rating (0 to 100 scale) for this record: N#Cc1cnn(-c2c(CF)cccc2Oc2ncc(Br)cn2)c1 0

New cases:
Give the reported value of Ryegrass, Italian plant response rating (0 to 100 scale) for this record: COc1ccc(C#N)c(-n2cc(Br)cn2)c1Oc1ncc(Cl)cn1 0

Give the reported value of Ryegrass, Italian plant response rating (0 to 100 scale) for this record: FC(F)Oc1cnn(-c2c(Cl)cccc2Oc2ncc(Cl)cn2)c1 10

* * *

system: barnyardgrass; assay: Test A postemergence; type: in vivo, Echinochloa crus-galli; conditions: 125 g ai/ha, 0 to 100 scale where 0 is no effect and 100 is complete control
measurementLabel: Barnyardgrass plant response rating
# output: bare number, no unit

Give the reported value of Barnyardgrass plant response rating for this record: Fc1cnc(Oc2cccc(Br)c2-n2cc(OCC(F)(F)F)cn2)nc1 [Compound 157] 80

Give the reported value of Barnyardgrass plant response rating for this record: FC(F)c1cnn(-c2c(Br)cccc2Oc2ncc(Cl)cn2)c1 [Compound 232] 30

Give the reported value of Barnyardgrass plant response rating for this record: C#Cc1cccc(Oc2ncc(Cl)cn2)c1-n1cc(Br)cn1 [Compound 199] 30

Give the reported value of Barnyardgrass plant response rating for this record: COc1cnc(Oc2ccccc2-n2cccn2)nc1 [Compound 227] 0

Give the reported value of Barnyardgrass plant response rating for this record: CC(C)c1cnc(Oc2cccc(C#N)c2-n2cc(Br)cn2)nc1 [Compound 130] 0

* * *

system: morningglory; assay: Test C postemergence; assay type: in vivo, Ipomoea coccinea; settings: 16 g ai/ha, postemergence; 0 is no effect, 100 is complete control
Returns one of Yes or No; Yes when Plant response rating (0 to 100), Morningglory is >= 20.

Reference set (5 entries):
Identify whether the reported Plant response rating (0 to 100), Morningglory of the following molecule is 20 or greater: Clc1cnc(Oc2cccc(Cl)c2-n2cc(Cl)cn2)nc1 [Compound 220] No

Identify whether the reported Plant response rating (0 to 100), Morningglory of the following molecule is 20 or greater: FCc1cccc(Oc2ncc(Cl)cn2)c1-n1cc(I)cn1 [Compound 245] No

Identify whether the reported Plant response rating (0 to 100), Morningglory of the following molecule is 20 or greater: Clc1cnc(Oc2cccc(Br)c2-n2cc(I)nn2)nc1 [Compound 117] Yes

Identify whether the reported Plant response rating (0 to 100), Morningglory of the following molecule is 20 or greater: FC(F)(F)c1cnn(-c2c(Br)cccc2Oc2ncc(Cl)cn2)c1 [Compound 191] Yes

Identify whether the reported Plant response rating (0 to 100), Morningglory of the following molecule is 20 or greater: FCc1cccc(Oc2ncc(F)cn2)c1-n1cc(I)cn1 [Compound 152] No

--- query ---
Identify whether the reported Plant response rating (0 to 100), Morningglory of the following molecule is 20 or greater: FC(F)c1cnn(-c2c(Cl)cccc2Oc2ncc(Cl)cn2)c1 [Compound 192] Yes
